molecular target: Androgen receptor (Homo sapiens) (UniProt P10275); experiment: qHTS assay to identify small molecule antagonists of the androgen receptor (AR) signaling pathway using the MDA cell line in the presence of 0.5 nM R1881 (AID 1259243); details: MDA-kb2 MMTV-luciferase, R1881 0.5 nM, 16 h; series mostly up to 42.5 µM; note: nearly all actives have a fitted effect of over 50% in size
Sequence (P10275 whole entry, looked up): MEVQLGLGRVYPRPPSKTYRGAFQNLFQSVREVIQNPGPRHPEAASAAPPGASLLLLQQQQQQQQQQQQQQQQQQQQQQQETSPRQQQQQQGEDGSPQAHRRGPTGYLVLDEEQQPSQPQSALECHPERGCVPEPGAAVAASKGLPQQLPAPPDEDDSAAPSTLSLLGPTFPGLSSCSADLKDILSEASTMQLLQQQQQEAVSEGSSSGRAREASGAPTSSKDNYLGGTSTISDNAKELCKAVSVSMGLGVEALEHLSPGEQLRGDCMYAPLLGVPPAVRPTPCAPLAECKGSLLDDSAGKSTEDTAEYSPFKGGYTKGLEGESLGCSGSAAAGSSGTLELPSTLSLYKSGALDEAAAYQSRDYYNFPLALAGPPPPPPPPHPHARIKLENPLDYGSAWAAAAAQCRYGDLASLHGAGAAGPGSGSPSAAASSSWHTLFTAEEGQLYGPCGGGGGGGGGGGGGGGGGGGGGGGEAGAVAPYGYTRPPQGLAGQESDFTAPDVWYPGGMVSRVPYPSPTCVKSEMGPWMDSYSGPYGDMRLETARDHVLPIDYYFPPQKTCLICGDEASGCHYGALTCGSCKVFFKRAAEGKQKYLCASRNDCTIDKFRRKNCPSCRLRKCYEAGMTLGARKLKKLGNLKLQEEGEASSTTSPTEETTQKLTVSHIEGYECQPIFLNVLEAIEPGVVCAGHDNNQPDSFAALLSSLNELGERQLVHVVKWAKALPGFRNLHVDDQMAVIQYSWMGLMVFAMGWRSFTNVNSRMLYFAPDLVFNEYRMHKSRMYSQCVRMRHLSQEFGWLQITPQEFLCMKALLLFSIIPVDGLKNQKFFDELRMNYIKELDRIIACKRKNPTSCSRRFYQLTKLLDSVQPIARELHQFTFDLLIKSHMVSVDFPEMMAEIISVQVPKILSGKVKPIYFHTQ
Records with an inconclusive call do not appear. Activity calls are given as the source filed them. Calls come from the whole dose curve; as a rule, active = well fitted inhibition curve with a large enough effect in the repeat runs; inconclusive = weak or mixed curves; inactive = no such curve, though single readings can be large or run the other way.
Could you please pick one outcome from this set? true (1) = active, false (0) = inactive

Answered examples (3):
[[record]]
molecule = "CCCCCN(CCCCC)C(=O)C(CCC(=O)O)NC(=O)c1ccc(Cl)c(Cl)c1 (configuration not stated)"
group = "false (0)"

[[record]]
molecule = "O=S(=O)(O)c1ccccc1O"
group = "false (0)"

[[record]]
molecule = "COc1ccc(NC(C)=O)cc1"
group = "false (0)"


Lookup: GET /call?item= "C1COCCO1" returns the recorded outcome of this test.
Found: false (0)

Lookup: Assay outcome for "CC1(C)SC(C)(C)SC(C)(C)S1" : what was it?
Found: false (0)

Lookup: Which outcome was entered for the molecule CCCOCC(C)OCC(C)O (configuration not stated) in this test?
Found: false (0)

Lookup: # outcome recorded in this test, key = "Cc1ncc(CSSCc2cnc(C)c(O)c2CO)c(CO)c1O"
Found: false (0)

Lookup: Write down the call the test reported for this molecule. Item: "C=CCn1c(=O)n([C@@H]2O[C@H](CO)[C@@H](O)[C@H]2O)c2nc(N)[nH]c(=O)c21"
Found: false (0)

====

Experiment: qHTS assay for small molecule agonists of the antioxidant response element (ARE) signaling pathway (AID 743202); note: % is set by controls: 0 for no effect and ±100 for the full control effect
Conditions: HepG2 ARE-bla reporter, beta-lactamase FRET, 16 h; series mostly up to 73.3 µM
Source text: U.S. Tox21 Program National Center for Advancing Translational Sciences [NCATS] NIH Chemical Genomics Center [NCGC] U.S. Environmental Protection Agency [EPA] National Institutes of Environmental Health Sciences [NIEHS] National Toxicology Program [NTP] U.S. Food and Drug Administration [FDA] […] The activation of the report gene under culture conditions can be detected by fluorescence intensity. […]
Records with an inconclusive call do not appear. The source made the active and inactive calls. Calls follow the shape of the dose curve; as a rule, active = well fitted activation curve with a large enough effect in the signal ratio in the repeat runs (not every such curve was filed as active); inconclusive = weak or mixed curves, or effect the other way; inactive = no such curve, though single readings can be large or run the other way; the % refers to the signal ratio.
Classes to choose from: active, inactive

Consider the worked cases shown below.
[[record]]
compound = "CC1CCN(CCCC(=O)c2ccc(F)cc2)CC1"
group = "inactive"

[[record]]
compound = "COc1nc(C)nc(N)n1"
group = "inactive"

[[record]]
compound = "CC(C)(O)C(=O)c1ccc(OCCO)cc1"
group = "inactive"

[[record]]
compound = "C=CCOCC(O)CS(=O)(=O)O (stereo unspecified)"
group = "inactive"

[[record]]
compound = "C=CC(=O)OCCCCCC"
group = "inactive"

[[record]]
compound = "CCCC(C)CO (stereo unspecified)"
group = "inactive"

[[record]]
compound = "Cc1ccccc1Br"
group = "inactive"

[[record]]
compound = "CCn1c(=O)c2c(nc(/C=C/c3ccc(OC)c(OC)c3)n2C)n(CC)c1=O"
group = "inactive"


Lookup: Hello, I am checking results. What call was entered for OC1OC[C@@H](O)[C@H](O)[C@H]1O (stereo partly specified) ?
Found: inactive

====

molecular target: Progesterone receptor (Homo sapiens); test: qHTS assay to identify small molecule antagonists of the progesterone receptor (PR) signaling pathway (AID 1346795); conditions: PR-UAS-bla HEK293T, beta-lactamase FRET ratio, 16 h; series mostly up to 92.4 µM
Results filed as inconclusive are left out. Active and inactive are the calls of the source. Calls follow the shape of the dose curve; as a rule, active = well fitted inhibition curve with a large enough effect in the signal ratio in the repeat runs (not every such curve was filed as active); inconclusive = weak or mixed curves; inactive = flat fitted curve, though single readings scatter; the % refers to the signal ratio.
Permitted responses: True (active), False (inactive)

Please review the following examples before continuing.
[[record]]
smiles_structure = "N#CCc1ccccc1[N+](=O)[O-]"
group = "False"

[[record]]
smiles_structure = "CC(=O)N[C@@H](CCC(N)=O)C(=O)O"
group = "False"


Lookup: Could you please tell me the result logged for "Oc1ccc2c(c1)OC[C@@H](N1CCC(O)(c3ccc(F)cc3)CC1)[C@H]2O" in this assay?
Found: True

====

molecular target: Estrogen receptor (Homo sapiens) (UniProt P03372); experiment: qHTS assay to identify small molecule agonists of the estrogen receptor alpha (ER-alpha) signaling pathway using the BG1 cell line (AID 743079); settings: BG1Luc4E2 cells, ERE-luciferase agonist, 22 h; series mostly up to 70.3 µM; note: nearly all actives have a fitted effect of over 20% in size; for activation: % is set by controls: 0 for no effect and ±100 for the full control effect
Sequence (P03372 whole entry, looked up): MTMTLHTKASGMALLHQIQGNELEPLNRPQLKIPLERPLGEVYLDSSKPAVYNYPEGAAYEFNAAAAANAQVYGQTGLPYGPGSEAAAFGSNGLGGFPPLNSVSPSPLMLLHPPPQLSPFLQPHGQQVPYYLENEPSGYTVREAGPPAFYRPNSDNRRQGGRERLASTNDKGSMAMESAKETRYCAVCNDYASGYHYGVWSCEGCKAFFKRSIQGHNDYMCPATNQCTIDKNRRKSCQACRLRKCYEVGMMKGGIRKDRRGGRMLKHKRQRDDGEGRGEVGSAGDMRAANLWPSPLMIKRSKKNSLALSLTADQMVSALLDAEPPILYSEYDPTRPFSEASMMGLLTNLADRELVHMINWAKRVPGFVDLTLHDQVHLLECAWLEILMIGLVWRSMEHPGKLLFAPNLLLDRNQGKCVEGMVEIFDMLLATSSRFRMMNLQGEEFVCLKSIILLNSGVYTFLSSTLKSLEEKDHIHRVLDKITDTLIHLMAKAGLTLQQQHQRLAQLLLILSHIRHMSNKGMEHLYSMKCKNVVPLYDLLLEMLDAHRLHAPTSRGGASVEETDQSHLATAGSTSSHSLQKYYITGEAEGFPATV
Records with an inconclusive call do not appear. Calls of active or inactive are those of the source. Calls follow the shape of the dose curve; as a rule, active = well fitted activation curve with a large enough effect in the repeat runs; inconclusive = weak or mixed curves, or effect the other way; inactive = no such curve, though single readings can be large or run the other way.
Select the matching outcome among active, inactive

Consider the following illustrative entries.
[[record]]
molecule = "C=C[Si](OC)(OC)OC"
group = "inactive"

[[record]]
molecule = "CC(C)COC(=O)C(C)C"
group = "inactive"

[[record]]
molecule = "C(=C(c1ccccc1)c1ccccc1)c1ccccc1"
group = "active"

[[record]]
molecule = "C1CCCCCCCCCCC1"
group = "inactive"

[[record]]
molecule = "CCOC(=O)Cn1c(=O)sc2cccc(Cl)c21"
group = "inactive"


Lookup: Assay outcome for "NC(N)=NS(=O)(=O)c1ccc(N)cc1" : what was it?
Found: inactive

Lookup: What outcome does the record of this test show for CCCCCCC(CCCCCCCCCCC(=O)OCC(COC(C)=O)OC(C)=O)OC(C)=O (centres undefined) ?
Found: inactive

Lookup: Per the records of this test, what outcome belongs to "NCCN1CCNC1=O" ?
Found: inactive

Lookup: // return assay outcome for CCN1CCCC(OC(=O)C(c2ccccc2)c2ccccc2)C1 (centres undefined)
Found: inactive

====

target: Androgen receptor (Homo sapiens) (UniProt P10275); experiment: qHTS assay to identify small molecule antagonists of the androgen receptor (AR) signaling pathway using the MDA cell line in the presence of 0.5 nM R1881 (AID 1259243); conditions: MDA-kb2 MMTV-luciferase, R1881 0.5 nM, 16 h; series mostly up to 42.5 µM; note: nearly all actives have a fitted effect of over 50% in size; note: potency is the fitted concentration of half-maximal effect
Records with an inconclusive call do not appear. Activity calls are given as the source filed them. Calls follow the shape of the dose curve; as a rule, active = well fitted inhibition curve with a large enough effect in the repeat runs; inconclusive = weak or mixed curves; inactive = no such curve, though single readings can be large or run the other way.
Assay Readout: Potency

[[record]]
smiles_structure = "CC1(C)OC(=O)Nc2ccc(Br)cc21"
assay_readout = "Potency"
recorded_measurement = "9.44 µM (active)"

[[record]]
smiles_structure = "COc1cc(CCC(C)=O)ccc1O"
assay_readout = "Potency"
recorded_measurement = "inactive"

[[record]]
smiles_structure = "CCCCCCOC(=O)CC(CC(=O)OCCCCCC)(OC(=O)CCC)C(=O)OCCCCCC"
assay_readout = "Potency"
recorded_measurement = "inactive"

[[record]]
smiles_structure = "O=C(O)/C=C/c1ccc(/C=C/C(=O)O)cc1"
assay_readout = "Potency"
recorded_measurement = "inactive"

